- MEASUREMENT TARGET: T1, human calcitonin receptor (human, UniProt P30988 25-474)
- T1 construct: whole, on cells; Used as cell membranes; also called hCTR; hCT
- T1 sequence (looked up): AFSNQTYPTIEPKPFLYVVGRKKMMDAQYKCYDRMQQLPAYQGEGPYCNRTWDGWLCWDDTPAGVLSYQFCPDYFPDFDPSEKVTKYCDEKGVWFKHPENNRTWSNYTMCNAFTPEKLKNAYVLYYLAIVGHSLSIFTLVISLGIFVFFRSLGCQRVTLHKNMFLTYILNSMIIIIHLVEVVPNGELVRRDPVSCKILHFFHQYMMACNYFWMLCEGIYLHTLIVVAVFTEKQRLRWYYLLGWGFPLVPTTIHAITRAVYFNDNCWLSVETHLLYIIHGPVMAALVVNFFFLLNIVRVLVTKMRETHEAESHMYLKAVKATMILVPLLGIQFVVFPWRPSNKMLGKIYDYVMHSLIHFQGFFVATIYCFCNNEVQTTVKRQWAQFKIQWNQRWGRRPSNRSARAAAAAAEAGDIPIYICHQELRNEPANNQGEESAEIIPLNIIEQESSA
- METHOD: SPA competition on BHK cell membranes, 125I-calcitonin as radioligand (Assay VII)
Numbered stars: 1 amine (or outer) side, 2 acyl side, 3 side chain; on linkers, the order of the positions; unused ones are H or OH. Bridge positions count the residues as written; N and C are the ends. * marks the point of attachment. C20 diacid = O=C(O)CCCCCCCCCCCCCCCCCCC(=O)*; γGlu = O=C(O)[C@H](CCC(=O)[*:2])N[*:1]
VALUE KIND: IC50 (nM)
Just the number please, in nM, no unit attached.

Notebook: {C20 diacid-γGlu}-GRCNTATCATQRLAAFLRHSSPNFGAIPSSTNVGPNTY-NH2 (disulfide 3-8, 38 residues) , IC50 read as 3
